// provenance: patent US10919943B2

Test system: HAB1
Experiment: Yeast two hybrid of pBD-PYR1 site saturation mutants with pACT-HAB1 on 10 μM ABA, β-galactosidase staining
Format: cell-based, Arabidopsis
Parameters: key: x: Mutations in PYR1 that disrupt ABA-induced binding to PYR1 to HAB1
Settings: S. cerevisiae Y190, 10 μM ABA; dead = lack of visible staining in comparison to wild type control
MEASUREMENT TYPE: Mutations in PYR1 that disrupt ABA-induced binding to PYR1 to HAB1

- MOLECULE: "G86V: PYR1 mutant (protein, UniProt O49686 1-191, looked up, variant G86V) Abscisic acid receptor PYR1: MPSELTPEERSELKNSIAEFHTYQLDPGSCSSLHAQRIHAPPELVWSIVRRFDKPQTYKHFIKSCSVEQNFEMRVGCTRDVIVISVLPANTSTERLDILDDERRVTGFSIIGGEHRLTNYKSVTTVHRFEKENRIWTVVLESYVVDMPEGNSEDDTRMFADTVVKLNLQKLATVAEAMARNSGDGSGSQVT"
  RESULT: "x"
- MOLECULE: "L117D: PYR1 mutant (protein, UniProt O49686 1-191, looked up, variant L117D) Abscisic acid receptor PYR1: MPSELTPEERSELKNSIAEFHTYQLDPGSCSSLHAQRIHAPPELVWSIVRRFDKPQTYKHFIKSCSVEQNFEMRVGCTRDVIVISGLPANTSTERLDILDDERRVTGFSIIGGEHRDTNYKSVTTVHRFEKENRIWTVVLESYVVDMPEGNSEDDTRMFADTVVKLNLQKLATVAEAMARNSGDGSGSQVT"
  RESULT: "x"
- MOLECULE: "N151M: PYR1 mutant (protein, UniProt O49686 1-191, looked up, variant N151M) Abscisic acid receptor PYR1: MPSELTPEERSELKNSIAEFHTYQLDPGSCSSLHAQRIHAPPELVWSIVRRFDKPQTYKHFIKSCSVEQNFEMRVGCTRDVIVISGLPANTSTERLDILDDERRVTGFSIIGGEHRLTNYKSVTTVHRFEKENRIWTVVLESYVVDMPEGMSEDDTRMFADTVVKLNLQKLATVAEAMARNSGDGSGSQVT"
  RESULT: "x"
